systemName: Active Human ERK2 (hERK2) (Homo sapiens (Human))
Sequence (P28482 whole entry): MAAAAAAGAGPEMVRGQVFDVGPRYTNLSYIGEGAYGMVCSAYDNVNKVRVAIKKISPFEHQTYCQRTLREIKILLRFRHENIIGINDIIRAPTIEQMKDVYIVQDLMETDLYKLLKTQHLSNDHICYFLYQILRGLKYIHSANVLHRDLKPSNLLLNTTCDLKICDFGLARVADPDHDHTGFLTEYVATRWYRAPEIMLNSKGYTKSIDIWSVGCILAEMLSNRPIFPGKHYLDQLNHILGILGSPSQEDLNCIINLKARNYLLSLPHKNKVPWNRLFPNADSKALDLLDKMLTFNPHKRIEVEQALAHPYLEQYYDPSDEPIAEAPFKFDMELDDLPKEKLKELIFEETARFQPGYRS
assayText: Active Human ERK2 (hERK2) Activity Assay (IMAP-FP)
Format: biochemical
testContext: phosphorylated active hERK2, 30 μM ATP; average; read-out: ERK 2 Human average IC50
experimentalEndpoint: IC50 (nM)

Known results for molecules:
Cc1cc(-c2n[nH]c3cc(NC(=O)N[C@@H]4c5ccccc5C[C@H]4N(C)C)ncc23)ccn1 | 11.3
Cc1nc2ccc(-c3n[nH]c4cc(NC(=O)N[C@H](C)c5ccccc5)ncc34)cc2o1 | 0.72
O=C(NCc1ccc(F)cc1)Nc1cc2[nH]nc(C3CCC3)c2cn1 | 12.9

[a] Cc1cc(-c2n[nH]c3cc(NC(=O)NC4COC4)ncc23)ccn1
[b] Cc1cc(-c2n[nH]c3cc(NC(=O)NCc4ncccc4Cl)ncc23)ccn1
Exam item: I'd appreciate it if you could identify which of a and b has the greater IC50. Kindly give the label for the entry you pick.
Marked response: a

[A] Cc1cc(-c2n[nH]c3cc(NC(=O)NCC4CCN(Cc5ccccc5)C4)ncc23)ccn1 (stereo not drawn)
[B] Cc1cc(-c2n[nH]c3cc(NC(=O)N[C@@H]4CNC[C@H]4F)ncc23)ccn1
[C] Cc1cc(-c2n[nH]c3cc(NC(=O)N[C@H]4CN(C)C[C@@H]4c4ccccc4C(F)(F)F)ncc23)ccn1
[D] O=C(NCc1ccno1)Nc1cc2[nH]nc(-c3ccc(F)cc3)c2cn1
Exam item: Rank the 4 molecules: largest IC50 first, smallest last. Submit the labels in the order that the ranking request calls for.
Marked response: B, A, D, C

[P] COC[C@@H](NC(=O)Nc1cc2[nH]nc(-c3cc(C)on3)c2cn1)c1ccc(F)cc1
[Q] Cc1cc(-c2n[nH]c3cc(NC(=O)NC(c4ccccc4)C(F)F)ncc23)ccn1 (stereo not drawn)
Exam item: I'd appreciate it if you could identify which of P and Q has the greater IC50. Kindly give the label for the entry you pick.
Marked response: P
(P: 5.39 nM, Q: 1.51 nM)

[1] Cc1cc(-c2n[nH]c3cc(NC(=O)NC4(c5ccc(Cl)cc5)CCOCC4)ncc23)ccn1
[2] O=C(NCc1ccc(F)cc1)Nc1cc2[nH]nc(C3CC3)c2cn1
[3] COC[C@@H](NC(=O)Nc1cc2[nH]nc(-c3ccc4c(c3)nnn4C)c2cn1)c1ccc(F)cc1
[4] Cc1cc(-c2n[nH]c3cc(NC(=O)NC4CCc5[nH]ncc5C4)ncc23)ccn1 (stereo not drawn)
Exam item: Rank the 4 molecules: largest IC50 first, smallest last. Submit the labels in the order that the ranking request calls for.
Marked response: 2, 1, 4, 3
(2: 23.5 nM, 1: 15.1 nM, 4: 0.805 nM, 3: 0.562 nM)

[P] C[C@@H](NC(=O)Nc1ncc2c(-c3ccnc(F)c3)n[nH]c2c1F)c1ccccc1
[Q] Cc1cc(-c2n[nH]c3cc(NC(=O)NC(C)CO)ncc23)ccn1 (stereo not drawn)
Exam item: I'd appreciate it if you could identify which of P and Q has the greater IC50. Kindly give the label for the entry you pick.
Marked response: Q

[I] COC[C@@H](NC(=O)Nc1cc2[nH]nc(-c3ccnc(C)c3)c2cn1)c1ccccc1
[II] Cc1cc(-c2n[nH]c3cc(NC(=O)NC(c4cccnc4)C(F)F)ncc23)ccn1 (stereo not drawn)
Exam item: Smaller IC50 value, I vs II ? Kindly give the label for the entry you pick.
Marked response: I
(I: 0.298 nM, II: 3.07 nM)

[P] COCCN(C)c1ncc(-c2n[nH]c3cc(NC(=O)N[C@H](C)c4ccccc4)ncc23)cn1
[Q] COc1ncccc1CNC(=O)Nc1cc2[nH]nc(-c3ccnc(C)c3)c2cn1
Exam item: I'd appreciate it if you could identify which of P and Q has the greater IC50. Kindly give the label for the entry you pick.
Marked response: P
(P: 24.3 nM, Q: 0.608 nM)

[a] Cc1cc(-c2n[nH]c3cc(NC(=O)NC4CCCOc5ccccc54)ncc23)no1 (stereo not drawn) [Example 689]
[b] O=C(Nc1cc2[nH]nc(C(F)F)c2cn1)NC1Cc2ccccc2C1O (stereo not drawn)
Exam item: Smaller IC50 value, a vs b ? Kindly give the label for the entry you pick.
Marked response: a

----------
systemName: Active Human ERK2 (hERK2) (Homo sapiens (Human))
assayText: Active Human ERK2 (hERK2) Activity Assay (IMAP-FP)
Assay type: biochemical
testContext: phosphorylated active hERK2, 30 μM ATP; average; read-out: ERK 2 Human average IC50
Method: Assays Active Human ERK2 (hERK2) Activity Assay: Activated ERK2 activity was determined in an IMAP-FP assay (Molecular Devices). […] The final reaction in each well of 25 μL consists of 0.5 nM hERK2, 900 nM unlabeled peptide, 80 nM labeled-peptide, and 30 μM ATP. […] Plates were read on EnVision reader after 60 minutes binding equilibration using Fluorescence Polarization protocol (Perkin Elmer).
pIC50: −log10 of the molar value.
experimentalEndpoint: pIC50

Cc1cc(-c2n[nH]c3cc(NC(=O)N[C@H](C)C4CCC4)ncc23)ccn1 | 8.46

[P] Cc1cc(-c2n[nH]c3cc(NC(=O)N[C@@H]4CN(C)C[C@H]4c4ccccc4)ncc23)ccn1 [Example 582]
[Q] C[C@@H](NC(=O)Nc1cc2[nH]nc(-c3ccc(F)cc3)c2cn1)c1ccc(F)c(Cl)c1
[R] COC[C@@H](NC(=O)Nc1cc2[nH]nc(-c3ccc(N4CCOCC4)nc3)c2cn1)c1ccc(F)cc1
Exam item: Rank the 3 compounds: largest pIC50 first, smallest last. Submit the labels in the order that the ranking request calls for.
Marked response: P, R, Q

[I] Cc1cc(-c2n[nH]c3cc(NC(=O)NC4(c5ccccc5)CC4)ncc23)ccn1
[II] C[C@@H](NC(=O)Nc1cc2[nH]nc(-c3ccc(N4CCOCC4)nc3)c2cn1)c1ccc(F)cc1
Exam item: I'd appreciate it if you could identify which of I and II has the greater pIC50. Kindly give the label for the entry you pick.
Marked response: II

[I] O=C(Nc1ncc2c(-c3ccncc3)n[nH]c2c1F)N[C@H](CO)c1ccccc1
[II] COCCNC(=O)Nc1cc2[nH]nc(-c3ccc4nn(C)cc4c3)c2cn1
Exam item: I'd appreciate it if you could identify which of I and II has the greater pIC50. Kindly give the label for the entry you pick.
Marked response: I
(I: 9.50, II: 9.10)

[a] C[C@@H](NC(=O)Nc1cc2[nH]nc(-c3ccc(N4CCCCC4)nc3)c2cn1)c1ccc(F)cc1
[b] C[C@@H](NC(=O)Nc1cc2[nH]nc(-c3ccc(F)cc3)c2cn1)c1ccccc1
Exam item: Smaller pIC50 value, a vs b ? Kindly give the label for the entry you pick.
Marked response: a

[1] COC[C@H](NC(=O)Nc1cc2[nH]nc(-c3ccnc(C)c3)c2cn1)c1ccccc1
[2] Cc1cc(-c2n[nH]c3cc(NC(=O)NCc4ccccc4Cl)ncc23)ccn1
[3] C[C@@H](NC(=O)Nc1cc2[nH]nc(-c3ccc(-n4ccnn4)cc3)c2cn1)c1ccc(F)cc1
[4] Cc1cc(-c2n[nH]c3cc(NC(=O)NCc4ccccc4OC(F)F)ncc23)ccn1
[5] CC[C@@H](NC(=O)Nc1cc2[nH]nc(-c3ccnc(C)c3)c2cn1)c1ccc(Cl)cc1
Exam item: Put the items in order so that reported pIC50 rises from first to last. Submit the labels in the order that the ranking request calls for.
Marked response: 1, 3, 2, 5, 4
(1: 7.90, 3: 8.26, 2: 8.89, 5: 9.12, 4: 9.51)

[A] Cc1cc(-c2n[nH]c3cc(NC(=O)NCc4ncc(Cl)cc4F)ncc23)ccn1
[B] C[C@@H](NC(=O)Nc1cc2[nH]nc(-c3cnn(C)c3)c2cn1)C1CCCCC1
Exam item: I'd appreciate it if you could identify which of A and B has the greater pIC50. Kindly give the label for the entry you pick.
Marked response: B

[1] C[C@@H](NC(=O)Nc1cc2[nH]nc(C3=CNCN=C3)c2cn1)c1ccc(F)cc1
[2] C[C@@H](NC(=O)Nc1cc2[nH]nc(-c3ccc4nnn(C)c4c3)c2cn1)c1ccc(F)cc1
Exam item: Smaller pIC50 value, 1 vs 2 ? Kindly give the label for the entry you pick.
Marked response: 1
(1: 8.04, 2: 9.51)

[I] C[C@@H](NC(=O)Nc1cc2[nH]nc(C3CC3(F)F)c2cn1)c1ccc(F)cc1 (stereo partly shown)
[II] Cc1cc(-c2n[nH]c3cc(NC(=O)N[C@H]4CCN(CC(F)(F)F)C4)ncc23)ccn1
[III] C[C@@H](NC(=O)Nc1cc2[nH]nc(C(=O)NCC34CC5CC(C3)C(O)C(C5)C4)c2cn1)c1ccccc1 (stereo partly shown)
[IV] COC[C@H](NC(=O)Nc1cc2[nH]nc(-c3cnn(C)c3)c2cn1)c1ccccc1
[V] C[C@@H](NC(=O)Nc1cc2[nH]nc(-c3cncnc3)c2cn1)c1ccc(F)cc1
Exam item: Rank the 5 compounds: largest pIC50 first, smallest last. Submit the labels in the order that the ranking request calls for.
Marked response: II, V, I, III, IV
